measured.target: T1, recombinant human CD3 epsilon/delta heterodimer (human, UniProt P07766 23-126; P04234 22-105)
T1 construct: Recombinant heterodimer used as analyte in Octet; also called hCD3 E/D; human CD3E/D
T1 sequence (P07766 23-126, stated change not applied, chain 1 of 2): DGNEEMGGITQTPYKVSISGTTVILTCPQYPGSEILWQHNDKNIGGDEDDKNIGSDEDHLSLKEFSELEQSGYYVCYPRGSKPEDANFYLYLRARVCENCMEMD
T1 sequence (P04234 22-105, stated change not applied, chain 2 of 2): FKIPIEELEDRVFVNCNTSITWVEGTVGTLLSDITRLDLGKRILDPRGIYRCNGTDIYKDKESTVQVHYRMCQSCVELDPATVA
test.summary: BLI (Octet), mAb 5 ug/mL on FAB2G sensor, hCD3 E/D 200-50 nM
Entries annotated with measured kon

binder: ABL-CD3-70 (antibody, V domains shown, mAb purified from hybridoma; chimeric AlivaMab IgG (human VH, CH1 and upper hinge; mouse middle hinge, CH2, CH3; human light chain)) VH: EVQLVESGGGLVKPGGSLRLSCAASGFTFSTYIMNWVRQAPGKGLEWVSSITSSSSYIYYADSVKGRFTISRDNAKNSLYLQMNSLRAEDTAVYYCAREKWELLFFDYWGQGTLVTVSS VL: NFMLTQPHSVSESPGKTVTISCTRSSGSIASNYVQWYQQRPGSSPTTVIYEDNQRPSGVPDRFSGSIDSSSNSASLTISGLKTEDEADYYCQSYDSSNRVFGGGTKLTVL
kon [M⁻¹ s⁻¹]: 214000
--
binder: ABL-CD3-79 (antibody, V domains shown, mAb purified from hybridoma; chimeric AlivaMab IgG (human VH, CH1 and upper hinge; mouse middle hinge, CH2, CH3; human light chain)) VH: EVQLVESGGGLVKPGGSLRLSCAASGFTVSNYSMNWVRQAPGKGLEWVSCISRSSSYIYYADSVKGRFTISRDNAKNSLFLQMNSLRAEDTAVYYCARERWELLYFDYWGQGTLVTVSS VL: QTVVTQEPSFSVSPGGTVTLTCGLSSGSVSTSYYPSWYQQTPGQAPRTLIYSTNTRSSGVPDRFSGSILGNKAALTITGAQADDESDYYCVLYMGSGIWVFGGGTKLTVL
kon [M⁻¹ s⁻¹]: 393000

These data points were gathered from patent US20260167721A1.
